Each recorded value in this set is attributed to PubChem BioAssay AID1963825.

For each record, write down the corresponding viability, T/C.
assay: Anticancer human tumor 997537-175-T-J1-PDC patient-derived colon adenocarcinoma cell line growth inhibition [POLQ]; settings: 997537-175-T-J1-PDC complex spheroid viability, combination with POLQ inhibitors; second compound 0.316 µM; first compound 0.316 µM; stronger effect = lower value;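 also: luminescence signal used as a surrogate for viable cells; spheroids exposed to drugs for seven days before readout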
Numbers only, in %.

Solved cases (3 shown):
CCc1c2c(nc3ccc(O)cc13)-c1cc3c(c(=O)n1C2)COC(=O)[C@]3(O)CC + Nc1ccc(C#CCN(C(=O)Cc2ncc(C(F)(F)F)cc2C(F)(F)F)c2ccc(F)cc2)nn1; 6.57
COc1cc2cc(C(=O)CCC(=O)O)sc2cc1OC + COC1C(OC(N)=O)C(O)C(Oc2ccc3c(O)c(NC(=O)c4ccc(O)c(CC=C(C)C)c4)c(=O)oc3c2C)OC1(C)C; 99.9
O=C(Nc1ccc(O)c(NS(=O)(=O)c2ccc(F)cc2)c1)c1ccc(-c2ccccc2)cc1 + Nc1ccc(C#CCN(C(=O)Cc2ncc(C(F)(F)F)cc2C(F)(F)F)c2ccc(F)cc2)nn1; 106

Please give viability, T/C for each item listed below.
1. C=CCn1c(=O)c2cnc(Nc3ccc(N4CCN(C)CC4)cc3)nc2n1-c1cccc(C(C)(C)O)n1 + Cc1cccc(N(C)C(=O)C2C(O)CCN2c2nc(C)cc(C(F)(F)F)c2C#N)c1
2. C#Cc1c(F)ccc2cc(O)cc(-c3ncc4c(N5CC6CCC(C5)N6)nc(OCC56CCCN5CC(F)C6)nc4c3F)c12 (stereo not given) + COC1C(OC(N)=O)C(O)C(Oc2ccc3c(O)c(NC(=O)c4ccc(O)c(CC=C(C)C)c4)c(=O)oc3c2C)OC1(C)C
3. CCc1c2c(nc3ccc(O)cc13)-c1cc3c(c(=O)n1C2)COC(=O)[C@]3(O)CC + Cc1cccc(N(C)C(=O)C2C(O)CCN2c2nc(C)cc(C(F)(F)F)c2C#N)c1
4. C#Cc1c(F)ccc2cc(O)cc(-c3ncc4c(N5CC6CCC(C5)N6)nc(OCC56CCCN5CC(F)C6)nc4c3F)c12 (stereo not given) + Nc1ccc(C#CCN(C(=O)Cc2ncc(C(F)(F)F)cc2C(F)(F)F)c2ccc(F)cc2)nn1
5. CC1COCCN1c1cc(C2(S(C)(=N)=O)CC2)nc(-c2ccnc3[nH]ccc23)n1 (stereo not given) + Cc1cccc(N(C)C(=O)C2C(O)CCN2c2nc(C)cc(C(F)(F)F)c2C#N)c1
6. COc1cc(C2c3cc4c(cc3C(OC3OC5COC(C)OC5C(O)C3O)C3COC(=O)C23)OCO4)cc(OC)c1O (stereo not given) + Cc1cccc(N(C)C(=O)C2C(O)CCN2c2nc(C)cc(C(F)(F)F)c2C#N)c1

Result:
1. 83.2
2. 97.9
3. 5.26
4. 101
5. 90.8
6. 96.3

Please give viability, T/C for each item listed below.
1. CC1COCCN1c1cc(C2(O)CC3CCC(C2)O3)c2cnn(-c3ccn[nH]3)c2n1 (stereo not given) + Nc1ccc(C#CCN(C(=O)Cc2ncc(C(F)(F)F)cc2C(F)(F)F)c2ccc(F)cc2)nn1
2. CNCc1ccc(-c2[nH]c3cc(F)cc4c3c2CCNC4=O)cc1 + Nc1ccc(C#CCN(C(=O)Cc2ncc(C(F)(F)F)cc2C(F)(F)F)c2ccc(F)cc2)nn1
3. C#Cc1c(F)ccc2cc(O)cc(-c3ncc4c(N5CC6CCC(C5)N6)nc(OCC56CCCN5CC(F)C6)nc4c3F)c12 (stereo not given) + Cc1cccc(N(C)C(=O)C2C(O)CCN2c2nc(C)cc(C(F)(F)F)c2C#N)c1
4. CCc1c2c(nc3ccc(O)cc13)-c1cc3c(c(=O)n1C2)COC(=O)[C@]3(O)CC + COC1C(OC(N)=O)C(O)C(Oc2ccc3c(O)c(NC(=O)c4ccc(O)c(CC=C(C)C)c4)c(=O)oc3c2C)OC1(C)C
5. C=CCn1c(=O)c2cnc(Nc3ccc(N4CCN(C)CC4)cc3)nc2n1-c1cccc(C(C)(C)O)n1 + COC1C(OC(N)=O)C(O)C(Oc2ccc3c(O)c(NC(=O)c4ccc(O)c(CC=C(C)C)c4)c(=O)oc3c2C)OC1(C)C
6. CCc1cc2c(N3CCc4c(cc(Cn5ccnc5)cc4-c4cn(C)nc4C(F)(F)F)C3=O)ccnc2c(OC)n1 + Nc1ccc(C#CCN(C(=O)Cc2ncc(C(F)(F)F)cc2C(F)(F)F)c2ccc(F)cc2)nn1

Result:
1. 49.9
2. 106
3. 91.6
4. 6.7
5. 92.5
6. 83.5
